B1: DCTD (parent)
chain: VKGCSMYVALFPCNECAKLIIQAG

- Variants of: B1
- TEST PROTOCOL: protein stability index of a GFP-peptide fusion (GPS, HEK-293T) (PSI 1-6); higher = more stable;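 also: lentivirally expressed fusions sorted by FACS into six bins by GFP to DsRed ratio, PSI derived from sequencing read proportions per bin multiplied by bin number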
- MEASUREMENT CONDITIONS: c terminus: a fixed tail appended
// -1 strictly below 4 in protein stability index; 1 otherwise

Lookup: Check if protein stability index >= 4 (inclusive). Item: A9W
Found: -1

Lookup: Decide: is the reported value of protein stability index for L19M equal to or greater than 4?
Found: -1

Lookup: Check this variant for protein stability index at or above 4: M6N
Found: -1

Lookup: Given the entry I21W , answer whether its protein stability index meets or surpasses 4.
Found: -1

Lookup: Reported protein stability index reaches at least 4 for S5M ?
Found: -1

Lookup: Check the entry L10S : does protein stability index equal or exceed 4?
Found: -1

Lookup: Reported protein stability index reaches at least 4 for A23L ?
Found: 1

Lookup: # bool: protein stability index of K18L >= 4
Found: -1

Lookup: Given the entry N14F , answer whether its protein stability index meets or surpasses 4.
Found: -1

Lookup: Does C16K have a reported protein stability index of at least 4?
Found: 1

Lookup: Decide: protein stability index of M6L >= 4?
Found: 1
